Tested on: NCI-H650
protocol-notes: relative viability (nuclei count vs DMSO), 5 days (fraction); higher = more cells survive
condition-info: first compound 0.002 µM
metric-name: relative viability

Reported relative viability for CC(=O)O[C@@]12CO[C@@H]1C[C@H](O)[C@@]1(C)C(=O)[C@H](O)C3=C(C)[C@@H](OC(=O)[C@H](O)[C@@H](NC(=O)OC(C)(C)C)c4ccccc4)C[C@@](O)([C@@H](OC(=O)c4ccccc4)[C@H]21)C3(C)C [Docetaxel] + CC(=O)Nc1cccc(-n2c(=O)n(C3CC3)c(=O)c3c(Nc4ccc(I)cc4F)n(C)c(=O)c(C)c32)c1 [Trametinib] (partner 0.02 µM) : what is it?
0.318

====

Let's look at some compounds and their measured relative viability.
Test system: NCI-H1563
protocol-notes: relative viability (nuclei count vs DMSO), 5 days (fraction); higher = more cells survive
condition-info: first compound 0.02 µM
Write the number on its own, no unit after it.

Check out these entries, answers already filled in.
1. CC(=O)O[C@@]12CO[C@@H]1C[C@H](O)[C@@]1(C)C(=O)[C@H](O)C3=C(C)[C@@H](OC(=O)[C@H](O)[C@@H](NC(=O)OC(C)(C)C)c4ccccc4)C[C@@](O)([C@@H](OC(=O)c4ccccc4)[C@H]21)C3(C)C [Docetaxel] + C[C@@H](Oc1cc(-c2cnn(C3CCNCC3)c2)cnc1N)c1c(Cl)ccc(F)c1Cl [Crizotinib] (partner 1 µM) ... 0.77
2. CC(=O)O[C@@]12CO[C@@H]1C[C@H](O)[C@@]1(C)C(=O)[C@H](O)C3=C(C)[C@@H](OC(=O)[C@H](O)[C@@H](NC(=O)OC(C)(C)C)c4ccccc4)C[C@@](O)([C@@H](OC(=O)c4ccccc4)[C@H]21)C3(C)C [Docetaxel] + CS(=O)(=O)N1CCN(Cc2cc3nc(-c4cccc5[nH]ncc45)nc(N4CCOCC4)c3s2)CC1 [Pictilisib] (partner 1 µM) ... 0.506

Reported relative viability for CC(=O)O[C@@]12CO[C@@H]1C[C@H](O)[C@@]1(C)C(=O)[C@H](O)C3=C(C)[C@@H](OC(=O)[C@H](O)[C@@H](NC(=O)OC(C)(C)C)c4ccccc4)C[C@@](O)([C@@H](OC(=O)c4ccccc4)[C@H]21)C3(C)C [Docetaxel] + C[C@]1(O)C[C@@H](c2nc(-c3ccc4ccc(-c5ccccc5)nc4c3)c3c(N)nccn32)C1 [Linsitinib] (partner 1 µM) : what is it?
0.617

====

Let's look at some molecules and their measured relative viability.
Test system: NCI-H596
protocol-notes: relative viability (nuclei count vs DMSO), 5 days (fraction); higher = more cells survive
condition-info: first compound 0.006325 µM
Write the number on its own, no unit after it.

Check out these entries, answers already filled in.
1) CC(=O)O[C@@]12CO[C@@H]1C[C@H](O)[C@@]1(C)C(=O)[C@H](O)C3=C(C)[C@@H](OC(=O)[C@H](O)[C@@H](NC(=O)OC(C)(C)C)c4ccccc4)C[C@@](O)([C@@H](OC(=O)c4ccccc4)[C@H]21)C3(C)C [Docetaxel] + C[C@@H](Oc1cc(-c2cnn(C3CCNCC3)c2)cnc1N)c1c(Cl)ccc(F)c1Cl [Crizotinib] (partner 1 µM) ... 0.475
2) CC(=O)O[C@@]12CO[C@@H]1C[C@H](O)[C@@]1(C)C(=O)[C@H](O)C3=C(C)[C@@H](OC(=O)[C@H](O)[C@@H](NC(=O)OC(C)(C)C)c4ccccc4)C[C@@](O)([C@@H](OC(=O)c4ccccc4)[C@H]21)C3(C)C [Docetaxel] + CS(=O)(=O)N1CCN(Cc2cc3nc(-c4cccc5[nH]ncc45)nc(N4CCOCC4)c3s2)CC1 [Pictilisib] (partner 1 µM) ... 0.297
3) CC(=O)O[C@@]12CO[C@@H]1C[C@H](O)[C@@]1(C)C(=O)[C@H](O)C3=C(C)[C@@H](OC(=O)[C@H](O)[C@@H](NC(=O)OC(C)(C)C)c4ccccc4)C[C@@](O)([C@@H](OC(=O)c4ccccc4)[C@H]21)C3(C)C [Docetaxel] + N=C(N)NC(=N)NCCc1ccccc1 [Phenformin] (partner 250 µM) ... 0.438
4) CC(=O)O[C@@]12CO[C@@H]1C[C@H](O)[C@@]1(C)C(=O)[C@H](O)C3=C(C)[C@@H](OC(=O)[C@H](O)[C@@H](NC(=O)OC(C)(C)C)c4ccccc4)C[C@@](O)([C@@H](OC(=O)c4ccccc4)[C@H]21)C3(C)C [Docetaxel] + O=C(CCCCCCC(=O)Nc1ccccc1)NO [Vorinostat] (partner 1 µM) ... 0.307

Could you now look at the following molecule, please?
// lookup relative viability | system=NCI-H596 | key= CC(=O)O[C@@]12CO[C@@H]1C[C@H](O)[C@@]1(C)C(=O)[C@H](O)C3=C(C)[C@@H](OC(=O)[C@H](O)[C@@H](NC(=O)OC(C)(C)C)c4ccccc4)C[C@@](O)([C@@H](OC(=O)c4ccccc4)[C@H]21)C3(C)C [Docetaxel] + CC(C)C[C@H](NC(=O)[C@H](Cc1ccccc1)NC(=O)c1cnccn1)B(O)O [Bortezomib] (partner 0.002 µM)
0.723

====

Let's look at some compounds and their measured relative viability.
Tested on: NCI-H1666
protocol-notes: relative viability (nuclei count vs DMSO), 5 days (fraction); higher = more cells survive
condition-info: first compound 0.01581 µM
Write the number on its own, no unit after it.

1) Nc1ccn([C@@H]2O[C@H](CO)[C@@H](O)[C@@H]2O)c(=O)n1 [Cytarabine] + CC(=O)Nc1cccc(-n2c(=O)n(C3CC3)c(=O)c3c(Nc4ccc(I)cc4F)n(C)c(=O)c(C)c32)c1 [Trametinib] (partner 0.02 µM) ... 0.728
2) COc1cc2nccc(Oc3ccc(NC(=O)Nc4cc(C)on4)c(Cl)c3)c2cc1OC [Tivozanib] + Cc1nc(NC(=O)N2CCC[C@H]2C(N)=O)sc1-c1ccnc(C(C)(C)C(F)(F)F)c1 [Alpelisib] (partner 2 µM) ... 0.853
3) COc1cc2nccc(Oc3ccc(NC(=O)Nc4cc(C)on4)c(Cl)c3)c2cc1OC [Tivozanib] + CC(=O)c1c(C)c2cnc(Nc3ccc(N4CCNCC4)cn3)nc2n(C2CCCC2)c1=O [Palbociclib] (partner 0.5 µM) ... 0.666
4) COc1cc2nccc(Oc3ccc(NC(=O)Nc4cc(C)on4)c(Cl)c3)c2cc1OC [Tivozanib] + CS(=O)(=O)CCNCc1ccc(-c2ccc3ncnc(Nc4ccc(OCc5cccc(F)c5)c(Cl)c4)c3c2)o1 [Lapatinib] (partner 2 µM) ... 0.621
5) COc1cc2nccc(Oc3ccc(NC(=O)Nc4cc(C)on4)c(Cl)c3)c2cc1OC [Tivozanib] + N=C(N)NC(=N)NCCc1ccccc1 [Phenformin] (partner 250 µM) ... 0.553
6) Nc1ccn([C@@H]2O[C@H](CO)[C@@H](O)[C@@H]2O)c(=O)n1 [Cytarabine] + Cc1nc(Nc2ncc(C(=O)Nc3c(C)cccc3Cl)s2)cc(N2CCN(CCO)CC2)n1 [Dasatinib] (partner 0.075 µM) ... 0.725

Reported relative viability for Nc1ccn([C@@H]2O[C@H](CO)[C@@H](O)[C@@H]2O)c(=O)n1 [Cytarabine] + COc1cccc2cc(-c3nc([C@H]4CC[C@H](C(=O)O)CC4)n4ncnc(N)c34)[nH]c12 [OSI-027] (partner 0.5 µM) : what is it?
0.729

Proceed to COc1cc2nccc(Oc3ccc(NC(=O)Nc4cc(C)on4)c(Cl)c3)c2cc1OC [Tivozanib] + COc1cc2c(Oc3ccc(NC(=O)C4(C(=O)Nc5ccc(F)cc5)CC4)cc3F)ccnc2cc1OCCCN1CCOCC1 [Foretinib] (partner 0.25 µM)
0.971

====

Let's look at some compounds and their measured relative viability.
System: HARA
protocol-notes: relative viability (nuclei count vs DMSO), 5 days (fraction); higher = more cells survive
condition-info: first compound 0.05 µM
Write the number on its own, no unit after it.

Reported relative viability for COc1cc2nccc(Oc3ccc(NC(=O)Nc4cc(C)on4)c(Cl)c3)c2cc1OC [Tivozanib] + CC(C)C[C@H](NC(=O)[C@H](Cc1ccccc1)NC(=O)c1cnccn1)B(O)O [Bortezomib] (partner 0.002 µM) : what is it?
1.08

Proceed to COc1cc2nccc(Oc3ccc(NC(=O)Nc4cc(C)on4)c(Cl)c3)c2cc1OC [Tivozanib] + COc1cc2c(Oc3ccc(NC(=O)C4(C(=O)Nc5ccc(F)cc5)CC4)cc3F)ccnc2cc1OCCCN1CCOCC1 [Foretinib] (partner 0.25 µM)
0.928

Proceed to COc1cc2nccc(Oc3ccc(NC(=O)Nc4cc(C)on4)c(Cl)c3)c2cc1OC [Tivozanib] + NC(=O)Nc1cc(-c2cccc(F)c2)sc1C(=O)N[C@H]1CCCNC1 [AZD7762] (partner 0.2 µM)
0.424

Proceed to COc1cc2nccc(Oc3ccc(NC(=O)Nc4cc(C)on4)c(Cl)c3)c2cc1OC [Tivozanib] + O=C(c1cc(Cc2n[nH]c(=O)c3ccccc23)ccc1F)N1CCN(C(=O)C2CC2)CC1 [Olaparib] (partner 8 µM)
0.763

Proceed to Nc1ccn([C@@H]2O[C@H](CO)[C@@H](O)[C@@H]2O)c(=O)n1 [Cytarabine] + C[C@@H](Oc1cc(-c2cnn(C3CCNCC3)c2)cnc1N)c1c(Cl)ccc(F)c1Cl [Crizotinib] (partner 1 µM)
0.333

Proceed to Nc1ccn([C@@H]2O[C@H](CO)[C@@H](O)[C@@H]2O)c(=O)n1 [Cytarabine] + CCNC(=O)c1noc(-c2cc(C(C)C)c(O)cc2O)c1-c1ccc(CN2CCOCC2)cc1 [Luminespib] (partner 0.01 µM)
0.27

Proceed to COc1cc2nccc(Oc3ccc(NC(=O)Nc4cc(C)on4)c(Cl)c3)c2cc1OC [Tivozanib] + N=C(N)NC(=N)NCCc1ccccc1 [Phenformin] (partner 250 µM)
0.424

Proceed to COc1cc2nccc(Oc3ccc(NC(=O)Nc4cc(C)on4)c(Cl)c3)c2cc1OC [Tivozanib] + Nc1nc2[nH]cc(CCc3ccc(C(=O)N[C@@H](CCC(=O)O)C(=O)O)cc3)c2c(=O)[nH]1 [Pemetrexed] (partner 0.2 µM)
0.249

Proceed to Nc1ccn([C@@H]2O[C@H](CO)[C@@H](O)[C@@H]2O)c(=O)n1 [Cytarabine] + COc1cccc2cc(-c3nc([C@H]4CC[C@H](C(=O)O)CC4)n4ncnc(N)c34)[nH]c12 [OSI-027] (partner 0.5 µM)
0.149
